Reference for the values: patent US20090181968A1

# targetEntity: human CB1 receptor (Homo sapiens)
# Construct: purchased Perkin-Elmer
# testProtocol: hCB1 receptor binding (3H-CP55,940 displacement)
Category key, based on recorded Ki: low interval (below 10 nM), middle interval (10 nM to below 50 nM), high interval (50 nM or more)

Query: Form field 'band' for O=C(COc1ccc(NC(=O)c2ccc(Cn3ccnn3)c3ccccc23)c(C(=O)NCC2CCC2)n1)NCCO
Result: high interval

Query: Form field 'band' for CN(C)C(=O)COc1ccc(NC(=O)c2ccc(Cn3ccnn3)c3ccccc23)c(C(=O)NCC2CCC2)n1
Result: high interval

Query: Form field 'band' for COCc1ccc(C(=O)Nc2ccc(OCCO)nc2C(=O)NCC2CCOCC2)c2ccccc12
Result: high interval

Query: Form field 'band' for O=C(COc1ccc(NC(=O)c2ccc(Cn3ccnn3)c3ccccc23)c(C(=O)NCC2CCC2)n1)NCc1ccccc1
Result: middle interval

Query: Form field 'band' for COCc1cnnn1Cc1ccc(C(=O)Nc2cccnc2C(=O)NCC2CCC2)c2ccccc12
Result: middle interval

Query: Form field 'band' for O=C(NCC1CCC1)c1nc(OCc2ccccn2)ccc1NC(=O)c1ccc(Cn2ccnn2)c2ccccc12
Result: low interval

Query: Form field 'band' for CC(C)OC(=O)COc1ccc(NC(=O)c2ccc(Cn3ccnn3)c3ccccc23)c(C(=O)NCC2CCC2)n1
Result: low interval

Query: Form field 'band' for O=C(NCC1CCOCC1)c1nc(OS(=O)(=O)CCC(F)(F)F)cnc1NC(=O)c1ccc(Cn2ccnn2)c2ccccc12
Result: high interval

====

# targetEntity: human CB1 receptor (Homo sapiens)
# Construct: purchased Perkin-Elmer
# testProtocol: hCB1 GTPγS binding
# Type: biochemical
# measurementConditions: read-out: Emax hCB1
Exercise: for every item that follows, state its recorded Emax.
Please state the figure in %; there is no need to write the unit.

Query: Hello, please tell me recorded Emax for this one: O=C(COc1ccc(NC(=O)c2ccc(Cn3ccnn3)c3ccccc23)c(C(=O)NCC2CCC2)n1)NCCO
Result: 110

Query: Hello, please tell me recorded Emax for this one: O=C(NCC1CCOCC1)c1nc(OS(=O)(=O)CCC(F)(F)F)cnc1NC(=O)c1ccc(Cn2ccnn2)c2ccccc12
Result: 140

Query: Hello, please tell me recorded Emax for this one: CC(C)OC(=O)COc1ccc(NC(=O)c2ccc(Cn3ccnn3)c3ccccc23)c(C(=O)NCC2CCC2)n1
Result: 80

Query: Hello, please tell me recorded Emax for this one: COCc1cnnn1Cc1ccc(C(=O)Nc2cccnc2C(=O)NCC2CCC2)c2ccccc12
Result: 120

Query: Hello, please tell me recorded Emax for this one: O=C(COc1ccc(NC(=O)c2ccc(Cn3ccnn3)c3ccccc23)c(C(=O)NCC2CCC2)n1)NCc1ccccc1
Result: 94

Query: Hello, please tell me recorded Emax for this one: O=C(NCC1CCC1)c1nc(OCc2ccccn2)ccc1NC(=O)c1ccc(Cn2ccnn2)c2ccccc12
Result: 110

====

Exercise: for every item that follows, state its recorded Emax.
# targetEntity: human CB1 receptor (Homo sapiens, UniProt P21554)
# Construct: purchased Perkin-Elmer
# Sequence (P21554 whole entry): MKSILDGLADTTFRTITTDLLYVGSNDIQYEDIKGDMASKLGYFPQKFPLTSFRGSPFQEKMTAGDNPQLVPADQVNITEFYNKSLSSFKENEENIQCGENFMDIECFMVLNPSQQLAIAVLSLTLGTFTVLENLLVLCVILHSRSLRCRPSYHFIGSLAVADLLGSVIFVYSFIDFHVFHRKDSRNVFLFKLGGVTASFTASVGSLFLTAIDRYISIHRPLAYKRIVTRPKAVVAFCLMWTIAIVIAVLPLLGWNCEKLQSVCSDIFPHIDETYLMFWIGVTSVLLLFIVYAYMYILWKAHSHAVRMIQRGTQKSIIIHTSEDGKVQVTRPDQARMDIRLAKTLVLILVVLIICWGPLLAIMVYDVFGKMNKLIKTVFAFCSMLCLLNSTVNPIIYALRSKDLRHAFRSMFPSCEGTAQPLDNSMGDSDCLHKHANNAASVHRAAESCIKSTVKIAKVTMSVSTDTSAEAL
# testProtocol: hCB1 GTPγS binding
# Format: biochemical
# measurementConditions: read-out: Emax hCB1
Please state the figure in %; there is no need to write the unit.

Query: Hello, please tell me recorded Emax for this one: CN(C)C(=O)COc1ccc(NC(=O)c2ccc(Cn3ccnn3)c3ccccc23)c(C(=O)NCC2CCC2)n1
Result: 88

Query: Hello, please tell me recorded Emax for this one: COCc1ccc(C(=O)Nc2ccc(OCCO)nc2C(=O)NCC2CCOCC2)c2ccccc12
Result: 93

Query: Hello, please tell me recorded Emax for this one: O=C(NCC1CCOCC1)c1ncccc1NC(=O)c1csc2ccccc12
Result: 88

Query: Hello, please tell me recorded Emax for this one: O=C(NCC1CCC1)c1ncccc1NC(=O)c1ccc(Cn2cc(F)nn2)c2ccccc12
Result: 48
